Provenance of the data: PubChem BioAssay

Overview of reported differential viability (reversal) across a group of compounds:
Test: reversal of MRP1-mediated doxorubicin resistance, pilot screen, H69AR cells, doxorubicin co-treatment (AID 601)
Details: H69AR cells + 2 uM doxorubicin, CellTiter-Glo, 72 h; at 10 µM; stronger effect = higher value
The source made the active and inactive calls.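 The calls were made as follows: active = viability loss from added drug above about 55%, and viability with drug at most 40%, in both replicates (limit read from the data, passing the limit was not always enough); inconclusive = both conditions met in only one replicate; inactive = neither replicate meets both conditions.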

1) CC(C)(C)C(=O)N=C1SC2CS(=O)(=O)CC2N1c1ccc2c(c1)OCO2 (stereo unspecified) | 10.5% (inactive)
2) C=CCn1c(SCC(=O)NCCCC)nc2scc(-c3ccco3)c2c1=O | 2.11% (inactive)
3) COc1ccccc1N1CCN(Cc2nnnn2CCc2ccccc2)CC1 | 3.56% (inactive)

Problem: Fill in the blank: the reported differential viability (reversal) of "CC(C)Cn1c(N)c(C(=O)COC(=O)c2cc(-c3ccco3)nc3ccccc23)c(=O)n(C)c1=O" is ____.
Solution: -1.72% (inactive)

Problem: Item: "COc1ccc(-n2c(SCCC(=O)O)nnc2-c2ccncc2)cc1"
Solution: 0.675% (inactive)

* * *

Assay: reducers of endogenous Her2 protein level, primary screen, SKBR3 breast tumor cells, AlphaScreen, ATP viability (AID 461);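 also: percent of carrier control wells set as 100% viability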
Conditions: 18-24 h, measured here: SKBR3 viability, ATP luminescence, at 10 µM
Returns: string. Value is t if measured viability is below 80%, and f if it is greater than or equal to it.

1. CCOC(=O)N1CCN(C(=O)COc2ccc(S(=O)(=O)NC3CCCCC3)cc2C)CC1 | f
2. O=C(OCc1nnc(-c2ccccc2)o1)C1=COCCO1 | f
3. C1CCc2nnc(-c3nnc4n3CCCCC4)n2CC1 | f
4. COc1ccc(C(=O)Nc2ccc(C)cn2)c(OC)c1 | t

Problem: Is it true that viability reported for O=C1c2oc3ccccc3c(=O)c2C(c2ccccn2)N1Cc1ccccc1 (stereo unspecified) is less than 80%?
Solution: f

* * *

Below, each entry is listed alongside its reported viability.
Test: HUVEC growth inhibition – cell-based, human, primary screen (AID 575);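 also: 100% = median of untreated cell wells with 0.1% DMSO on each plate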
Details: HUVEC proliferation, CellTiter-Glo luminescence, 72 h; at 10 µM; stronger effect = lower value
The answer is to be given in %; state only the numeric part.

Example entries and their recorded answers appear below.
1) Cc1ccc(S(=O)(=O)Nc2nc3ccccc3nc2NCc2ccco2)cc1 | 86.7
2) C/C=C/c1ccc(OCCn2cncn2)c(OC)c1 | 95.6
3) Cc1cc(C)c2[nH]c(=O)c(C(c3nnnn3Cc3ccc4c(c3)OCO4)N3CCC(C)CC3)cc2c1 (stereo not drawn) | 84.4
4) COc1ccc(C(=O)NCCCCCC(=O)O)cc1OC | 90.5
5) COC(=O)CCSCc1cn2cc(Cl)ccc2n1 | 87.3

Problem: I have this compound here, Cc1noc(C)c1S(=O)(=O)N1CCCC(C(=O)NCCc2ccc(Cl)cc2)C1 (stereo not drawn) , and I need its recorded viability.
Solution: 98.1

Problem: Try this compound next: "CCN(CC)c1ccc2cc(NC(=O)CCC(=O)O)c(=O)oc2c1"
Solution: 81.1

* * *

Below, each entry is listed with its recorded inhibition.
Experiment: growth suppression of yeast trafficking mutant, preliminary HTS, modulators of trafficking downstream of Golgi apparatus project, 1536-format plate, OD 615 nm (AID 637)
Conditions: yeast transport mutant growth, absorbance 615 nm, 18 h; stronger effect = higher value
Calls of active or inactive are those of the source. No stated cut-off is given here; in the data, active means inhibition above about 30%; inactive means the rest.

Record excerpt, results attached:
1) CCOc1ccc(S(=O)(=O)Nc2ccccc2C(=O)Nc2ccccc2N2CCOCC2)cc1 | 3.06% (inactive)
2) COC(=O)c1sc(NC(=O)c2ccoc2C)nc1C | 8.06% (inactive)
3) CCC(c1nnnn1Cc1ccco1)N(CCc1ccccc1)Cc1cc2cccc(C)c2[nH]c1=O (stereo unspecified) | -2.67% (inactive)
4) CCOCCCNCC(=O)N1CCN(S(=O)(=O)c2ccc(C)cc2)CC1 | -1.45% (inactive)
5) COc1ccc2nc(NC(=O)CSc3nnc(-c4ccoc4C)n3C)sc2c1 | -3.87% (inactive)
6) O=C(NCCO)c1scc2c1OCCO2 | -1.8% (inactive)
7) COc1cc(OC)c(C2C(C#N)=C(N)OC3=C2C(=O)CC(C)(C)C3)cc1OC (stereo unspecified) | -9.02% (inactive)
8) COCC(=O)N(Cc1ccc(OC)cc1)Cc1nc2ccccc2c(=O)[nH]1 | 5% (inactive)
9) FC(F)(F)c1nnc2ccc(NCn3nnc4ccccc43)nn12 | -1.75% (inactive)
10) CCOc1ccccc1CNC(=O)CCN1C(=O)COc2ccccc21 | -7% (inactive)

Could you now look at the following molecule, please?
Problem: Consider the molecule "Cc1cccc2cc(CN(Cc3nnnn3Cc3ccccc3)C3CCCC3)c(=O)[nH]c12" and give its measured inhibition.
Solution: -4.55% (inactive)
